Assay: HUVEC growth inhibition – cell-based, human, primary screen (AID 575);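 note: 100% = median of untreated cell wells with 0.1% DMSO on each plate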
Conditions: HUVEC proliferation, CellTiter-Glo luminescence, 72 h; at 10 µM; stronger effect = lower value
Threshold 90%: viability strictly smaller gives Yes, otherwise No.

{"COMPOUND": "O=C(NC1CCCCC1)n1c(=O)oc2ccc(Cl)cc21", "GROUP": "No"}
{"COMPOUND": "CC(C)CCNC(=O)NC(=O)CN1C(=O)NC2(CCCCC2)C1=O", "GROUP": "No"}
{"COMPOUND": "CCOC(=O)c1[nH]cc(-c2ccccc2)c1N1CCOCC1", "GROUP": "No"}
{"COMPOUND": "COc1ccccc1N1CC(C(=O)Nc2cccc(C(=O)O)c2)CC1=O (stereo unspecified)", "GROUP": "No"}
{"COMPOUND": "CSc1nnc2c3ccccc3n(CCc3ccccc3)c2n1", "GROUP": "Yes"}
{"COMPOUND": "CCOC(=O)c1cnn(-c2cc(C)nc3c(-c4ccccc4)c(C)nn23)c1N", "GROUP": "Yes"}
{"COMPOUND": "Brc1ccc(-c2cn3cccnc3n2)cc1", "GROUP": "Yes"}
{"COMPOUND": "O=C(NC1CCS(=O)(=O)C1)c1c(NC(=O)C2COc3ccccc3O2)sc2c1CCCC2 (stereo unspecified)", "GROUP": "Yes"}
{"COMPOUND": "CC1CCCCC1NC(=O)CCCc1nc2ccccc2c(=O)[nH]1 (stereo unspecified)", "GROUP": "No"}

* * *

Experiment: reversal of MRP1-mediated doxorubicin resistance, pilot screen, H69AR cells, doxorubicin co-treatment (AID 601)
Conditions: H69AR cells + 2 uM doxorubicin, CellTiter-Glo, 72 h; measured here: viability with 2 uM doxorubicin; at 10 µM; stronger effect = lower value
Threshold 90%: viability strictly smaller gives met, otherwise not met.

{"MOLECULE": "COc1ccc(S(=O)(=O)NCC(=O)N(CC(=O)NCC2CCCO2)c2ccccc2C)cc1 (centres undefined)", "GROUP": "met"}
{"MOLECULE": "COc1ccccc1N1CC(C(=O)Nc2cccc(C(=O)O)c2)CC1=O (centres undefined)", "GROUP": "not met"}
{"MOLECULE": "CCOCCc1nnc(NC(=O)c2ccc(OC)c(OC)c2)s1", "GROUP": "not met"}
{"MOLECULE": "CCOC(=O)C1=C(C)OC(N)=C(C#N)C1c1ccoc1 (centres undefined)", "GROUP": "met"}
{"MOLECULE": "O=C(c1ccco1)N1CCN(C(=O)c2cc3c(s2)-c2ccccc2OC3)CC1", "GROUP": "not met"}
{"MOLECULE": "CCOc1ccc2ccccc2c1C(=O)N1CCN(c2ccccc2)CC1", "GROUP": "met"}
{"MOLECULE": "CCOC(=O)C1=C(O)C(=O)N(c2ccc(S(N)(=O)=O)cc2)C1c1ccccc1 (centres undefined)", "GROUP": "not met"}

* * *

Experiment: HUVEC growth inhibition – cell-based, human, primary screen (AID 575);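 note: 100% = median of untreated cell wells with 0.1% DMSO on each plate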
Conditions: HUVEC proliferation, CellTiter-Glo luminescence, 72 h; at 10 µM; stronger effect = lower value

{"SMILES_DATA": "CCOc1ccccc1NC(=O)CCN1CCN(S(=O)(=O)c2ccc(Br)cc2)CC1", "viability [%]": 100}
{"SMILES_DATA": "Cc1cc(O)c(C(C)C)cc1N=C1CSC(=O)N1", "viability [%]": 95.3}
{"SMILES_DATA": "CCCCn1c(=O)[nH]c(=O)c2c1nc(-c1ccncc1)n2CCOC", "viability [%]": 90.5}
{"SMILES_DATA": "c1ccc(Cc2ccc(OCCn3cncn3)cc2)cc1", "viability [%]": 98.6}
